Parameter: SPOT peptide array binding signal intensity. Scope: all listed entries.
STUDY TARGET: SpHof1-2
ASSAY METHOD TEXT: SPOT peptide array binding signal intensity (averaged, normalized) (arbitrary units (background-subtracted, floor 0; scale differs between SH3 domains)); higher = stronger binding of the SH3 domain to the peptide
Reply briefly: the number, and no unit.

# BINDER, VAL
measured = [
    ("PSTMDFPKLPSFQNS", 72.2),
]

Fill in the blank: the reported SPOT peptide array binding signal intensity of `EREKALPPIPFTTTL` is ____.
1870

Fill in the blank: the reported SPOT peptide array binding signal intensity of `NSMRPPLLIPAATTK` is ____.
31.8

Fill in the blank: the reported SPOT peptide array binding signal intensity of `HRRRRVFSIPSLKSI` is ____.
51.2

Fill in the blank: the reported SPOT peptide array binding signal intensity of `LLIRWLILMPLVGSR` is ____.
75.2

Fill in the blank: the reported SPOT peptide array binding signal intensity of `HPRFVSPRIPSRIVK` is ____.
15.8
